# LC retention time per record follows
- Protocol: LC retention time (Atlantis T3, 5-95% MeOH gradient, 0.1% formic acid); higher = more retained / less polar
// note: answer is a bare numeric in min

# LC retention time lookup, item CC(C)(C)Nc1nc(N)nc(O)n1 [Terbutylazin-desethyl-2-hydroxy]
9.56

# LC retention time lookup, item COC(=O)c1ccccc1S(N)(=O)=O
12.9

# LC retention time lookup, item CC(C)=NOCCOC(=O)C(C)Oc1ccc(Oc2cnc3cc(Cl)ccc3n2)cc1 (stereo unspecified)
22.4

# LC retention time lookup, item COC(=O)c1ccc(CNS(C)(=O)=O)cc1S(=O)(=O)[N-]C(=O)Nc1nc(OC)cc(OC)n1
18

# LC retention time lookup, item COc1cc(OC)n2nc([N-]S(=O)(=O)c3c(C(F)(F)F)ccnc3OC)nc2n1
16.7

# LC retention time lookup, item COc1cc(OC)n2nc(S(=O)(=O)Nc3c(Cl)ccc(C)c3Cl)nc2n1
17

# LC retention time lookup, item CC1(C)CC(O)CC(C)(C)[NH+]1CCO [4-Hydroxy-1-(2-hydroxyethyl)-2-2-6-6-tetramethylpiperidine]
4.55

# LC retention time lookup, item O=c1ccc(=O)[nH][n-]1 [Maleic-hydrazide]
5.88

# LC retention time lookup, item Nc1[nH]c(=O)ncc1F
3.63

# LC retention time lookup, item CCOC1Oc2ccc(OS(C)(=O)=O)cc2C1(C)C (stereo unspecified)
19.2

# LC retention time lookup, item CCCCc1c(C)nc(NCC)nc1OS(=O)(=O)N(C)C [Bupirimate]
19.3

# LC retention time lookup, item O=[N+]([O-])c1ccc(C2OC2c2ccc([N+](=O)[O-])cc2S(=O)(=O)[O-])c(S(=O)(=O)[O-])c1 (stereo unspecified) [1-2-Bis-(4-4-dinitro-2-2-disulfonic acid-phenylethylenoxide]
19.7

----------
- Protocol: absolute recovery over vacuum-assisted evaporative concentration; higher = better recovery
- Applied Conditions: wastewater effluent; enrichment method: VEC
Readout Type: absolute recovery (%)
// note: answer is a bare numeric in %

Consider the following illustrative entries.
- Compound: "COCc1cnc(C2=NC(C)(C(C)C)C(=O)N2)c(C(=O)[O-])c1 (stereo not drawn)"
  Readout Type: "absolute recovery"
  Meas Value: 104
- Compound: "CC[NH+](CC)CC#CCOC(=O)C(O)(c1ccccc1)C1CCCCC1 (stereo not drawn)"
  Readout Type: "absolute recovery"
  Meas Value: 90.1
- Compound: "O=C1CCC2(O)C3Cc4ccc(O)c5c4C2(CC[NH+]3CC2CC2)C1O5 (stereo not drawn) [Naltrexon]"
  Readout Type: "absolute recovery"
  Meas Value: 103
- Compound: "CN(C)C(=O)Nc1ccc(Cl)cc1"
  Readout Type: "absolute recovery"
  Meas Value: 103
- Compound: "NC(=O)Cc1ccc(OCC(O)C[NH3+])cc1 (stereo not drawn)"
  Readout Type: "absolute recovery"
  Meas Value: 87.6
- Compound: "CC(C)c1nc(CN(C)C(=O)NC(C(=O)NC(Cc2ccccc2)CC(O)C(Cc2ccccc2)NC(=O)OCc2cncs2)C(C)C)cs1 (stereo not drawn)"
  Readout Type: "absolute recovery"
  Meas Value: 106
- Compound: "CC(C1CC1)C(O)(Cn1cncn1)c1ccc(Cl)cc1 (stereo not drawn)"
  Readout Type: "absolute recovery"
  Meas Value: 92.9

Attention now turns to another entry.
# absolute recovery lookup, item Cc1ccc(NC(=O)N(C)C)cc1Cl
107
